- TEST_TARGET: Luciferin 4-monooxygenase (Photinus pyralis)
- ASSAY: qHTS Assay for Inhibitors of Firefly Luciferase; also: nearly all actives have a fitted effect of over 40% in size
- REPORTED_CONDITIONS: purified firefly luciferase, luminescence, 8 min; series mostly up to 57.1 µM
The whole screen tested about 72,000 compounds, of which about 1,600 (2.2%) were called active. Calls follow the shape of the dose curve; as a rule, active = well fitted inhibition curve with a large enough effect; inconclusive = small, poorly fitted or top-dose-only effect; inactive = flat fitted curve, though single readings scatter. The entries come from a sample that favours actives as a whole.
Give one outcome, nothing more. List: active, inactive

Tell me the assay call for "Cn1c(CNC(=O)C(C)(C)C)nc2ccccc21" please.
inactive

Next entry: "CCOc1nc(-c2ccc(OC)cc2)ccc1-c1noc(-c2cc(OC)c(OC)c(OC)c2)n1"
inactive

Then this molecule: "Cc1nn2c3ccccc3nc2n(C)c1=O"
inactive

Could you do the same for "Cn1c(-c2ccc(C(=O)c3ccccc3)s2)nc2ccccc21" , please?
active

Same question, "COc1cc(-c2nc(-c3ccncc3)no2)cc(OC)c1OC" this time
inactive

Try "C=CCSc1nc2ccccc2[nH]1" next.
inactive

----------
- TEST_TARGET: Luciferin 4-monooxygenase (Photinus pyralis) (UniProt P08659)
- Sequence (P08659 whole entry, looked up): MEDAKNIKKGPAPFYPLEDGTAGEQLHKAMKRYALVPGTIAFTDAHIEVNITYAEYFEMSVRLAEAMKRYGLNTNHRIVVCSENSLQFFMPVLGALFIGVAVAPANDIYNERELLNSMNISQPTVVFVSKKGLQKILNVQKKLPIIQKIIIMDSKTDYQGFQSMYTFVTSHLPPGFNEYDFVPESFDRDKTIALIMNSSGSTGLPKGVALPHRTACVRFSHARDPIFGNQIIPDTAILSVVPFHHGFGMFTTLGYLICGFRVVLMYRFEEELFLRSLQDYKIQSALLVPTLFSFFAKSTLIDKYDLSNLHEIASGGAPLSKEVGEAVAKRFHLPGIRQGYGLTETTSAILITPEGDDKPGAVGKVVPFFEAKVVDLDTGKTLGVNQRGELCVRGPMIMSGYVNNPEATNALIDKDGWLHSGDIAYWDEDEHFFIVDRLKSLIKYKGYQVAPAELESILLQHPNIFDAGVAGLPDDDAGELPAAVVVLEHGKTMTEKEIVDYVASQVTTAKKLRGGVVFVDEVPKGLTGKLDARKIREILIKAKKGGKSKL
- ASSAY: qHTS Assay for Inhibitors of Firefly Luciferase; also: nearly all actives have a fitted effect of over 40% in size; also: potency is read from the fitted curve at half-maximal effect
- REPORTED_CONDITIONS: purified firefly luciferase, luminescence, 8 min; series mostly up to 57.1 µM
- Excerpt: To aid in the interpretation of high-throughput screening (HTS) results derived from luciferase-based assays, we used quantitative HTS, an approach that defines the concentration-response behavior of each library sample, to profile the ATP-dependent luciferase from Photinus pyralis against more than 72 000 samples. […] Quantitative high-throughput screening: a titration-based approach that efficiently identifies biological activities in large chemical libraries. […]
Hit rate of the full screen: of about 72,000 compounds, about 1,600 (2.2%) were called active. Many of the other results were omitted from the sample, so actives are more common in it than they were.
PROPERTY_MEASURED: Potency

Solved cases (5 shown):
- MOLECULE: "Cc1ccc(NC(=O)CSc2nnc(-c3cnccn3)n2Cc2ccco2)cc1C"
  TEST_TARGET: "Luciferin 4-monooxygenase (Photinus pyralis) (UniProt P08659)"
  Potency: "inactive"
- MOLECULE: "COc1ccc(N2CCN(C(=O)CSc3nc4cc(OC)c(OC)cc4cc3C#N)CC2)cc1"
  TEST_TARGET: "Luciferin 4-monooxygenase (Photinus pyralis) (UniProt P08659)"
  Potency: "inactive"
- MOLECULE: "CCOc1ccc(N2C(=O)CC(N(O)c3ccccc3)C2=O)cc1 (centres undefined)"
  TEST_TARGET: "Luciferin 4-monooxygenase (Photinus pyralis) (UniProt P08659)"
  Potency: "inactive"
- MOLECULE: "O=C(O)C1CC=CCC1C(=O)NCCc1ccccc1 (centres undefined)"
  TEST_TARGET: "Luciferin 4-monooxygenase (Photinus pyralis) (UniProt P08659)"
  Potency: "inactive"
- MOLECULE: "CCCN1C2=C(C(=O)CCC2)C(c2ccc(O)c(Br)c2)C2=C1CCCC2=O"
  TEST_TARGET: "Luciferin 4-monooxygenase (Photinus pyralis) (UniProt P08659)"
  Potency: "inactive"

Which Potency is reported for this molecule? "O=C(c1cc(-c2ccccc2O)on1)N1CCCC1"
inactive

Field entry: "CCOc1ccc(C(C)C)cc1S(=O)(=O)n1nc(C)cc1C"
inactive

Next molecule up: "COc1ccc(CCNC(=O)c2ccco2)cc1"
inactive

Moving on to the next molecule: "CCc1ccc2oc(-c3ccc(N)cc3)nc2c1"
2 µM (active)

Please give the result for "CCOC(=O)c1[nH]c2ccc(OC)cc2c1NC(=O)N1CCOCC1" too.
inactive

Same read-out for "CC(=O)N1CCN(C(=O)c2cccc(S(=O)(=O)Nc3ccc(C)cc3)c2)CC1" ?
inactive

Similarly, "O=C(c1cc(-c2cccs2)on1)N1CCCCC1" ?
15.8 µM (active)

# iterate: CCc1cccc2c3c([nH]c12)C(CC)(CC(=O)O)OCC3 (centres undefined)
inactive

Do the same for "CCOC(=O)c1c(C)[nH]c(C(=O)COc2ccc3c(c2)OCO3)c1C" please
inactive

Query COc1ccc2nc(N3CCCC(O)C3)c(C#N)cc2c1 (centres undefined) next
12.6 µM (active)

Consider next the molecule "O=C(c1cc(-c2cccc(O)c2)on1)N1CCc2ccccc2C1" in the same way.
inactive

Could you do the same for CC(C)CCNC(=O)C(C)N(C(=O)Cn1nnc(-c2ccc(F)cc2)n1)C1CCCC1 (centres undefined) , please?
inactive

Entry "O=C(CCN1C(=O)c2ccncc2C1=O)Nc1ccc2c(c1)OCCO2" please
inactive

Thanks! And "O=C(Nc1ncccn1)c1cccs1" ?
inactive
